Entry source: the supplement of paper PMC10567573

B1: PDS5B (parent)
chain: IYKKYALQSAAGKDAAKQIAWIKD

# Variants of: B1
# ASSAY EXPLANATION: protein stability index of a GFP-peptide fusion (GPS, HEK-293T) (PSI 1-6); higher = more stable;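 further: lentivirally expressed fusions sorted by FACS into six bins by GFP to DsRed ratio, PSI derived from sequencing read proportions per bin multiplied by bin number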
# COND: c terminus: a fixed tail appended
READOUT TYPE: protein stability index

Which value of protein stability index has been reported for `A16N` in the records? 2.39

Another variant to look at: `I1R` 2.5

Another variant to look at: `A10E` 2.38

Another variant to look at: `D24I` 1.76

Another variant to look at: `I1N` 2.41

Another variant to look at: `A6Q` 2.85

Another variant to look at: `I19Y` 1.99

Another variant to look at: `D14T` 1.94

Another variant to look at: `Y2H` 3.02

Another variant to look at: `S9Q` 2.79

Another variant to look at: `L7S` 2.68

Another variant to look at: `A20E` 2.66

Another variant to look at: `Y5A` 2.78

Another variant to look at: `A16C` 2.16

Another variant to look at: `Y5W` 1.98

Another variant to look at: `K13Y` 2.92

Another variant to look at: `Q18V` 2.07

Another variant to look at: `A16V` 2.98
